Biological target: T1, 14-3-3ζ K49A (human, UniProt P63104 1-245, K49A)
T1 construct: N-terminal glycine retained after TEV cleavage of the His tag; 14-3-3ζ, human, with the K49A mutation introduced into 14-3-3ζ; source: purified by Ni Sepharose with TEV cleavage as all 14-3-3ζ constructs; not shown: His tag, N-terminal, cleaved
T1 sequence: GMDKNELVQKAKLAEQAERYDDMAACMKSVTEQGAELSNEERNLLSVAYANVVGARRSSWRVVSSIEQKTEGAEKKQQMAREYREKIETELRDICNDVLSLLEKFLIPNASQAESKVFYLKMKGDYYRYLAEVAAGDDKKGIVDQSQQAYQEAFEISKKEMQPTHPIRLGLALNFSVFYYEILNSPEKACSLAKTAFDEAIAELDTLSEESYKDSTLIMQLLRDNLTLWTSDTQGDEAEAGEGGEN
Assay: ITC; VP-ITC, 25°C; ~1-2 mM peptide titrated in 5 uL aliquots into ~100-200 uM 14-3-3ζ in the cell; 50 mM sodium phosphate, 100 mM NaCl, 1 mM DTT, pH 6.8; one-site model; in duplicate
Details: both partners purified
Square brackets hold non-standard residues; d marks the D form. Ends that are not written are not given here. pS = N[C@@H](COP(=O)(O)O)C(=O)O
metric: pKd
The scale used: pKd is minus the common logarithm of the concentration in molar units.

binder | readout-number
KTPPRKSA[pS]LSNLHSLDR (Chibby (Cby), human, residues 12-29; free NH2 and COOH ends; also called Cby 18-mer WT; WT Cby 18-mer; source: synthetic peptide, bought: GenScript USA Inc) [pCby 18-mer] | 5.42

query: Report pKd for KTPPRKSA[pS]LPNLHSLDR (Chibby (Cby), human, residues 12-29 with S22P; free NH2 and COOH ends; also called Cby 18-mer S22P; source: synthetic peptide, bought: TUFTS University Core Facility) [pCby S22P 18-mer] please.
result: 5.72
